Target System: human RORγ (Homo sapiens)
Construct: human, NM_005060.3 and from Ser253 to Lys518; expressed in transfected cells; host or cells: CHO cells (transient co-transfection with pG5-Luc reporter)
Sequence (P51449 253-518): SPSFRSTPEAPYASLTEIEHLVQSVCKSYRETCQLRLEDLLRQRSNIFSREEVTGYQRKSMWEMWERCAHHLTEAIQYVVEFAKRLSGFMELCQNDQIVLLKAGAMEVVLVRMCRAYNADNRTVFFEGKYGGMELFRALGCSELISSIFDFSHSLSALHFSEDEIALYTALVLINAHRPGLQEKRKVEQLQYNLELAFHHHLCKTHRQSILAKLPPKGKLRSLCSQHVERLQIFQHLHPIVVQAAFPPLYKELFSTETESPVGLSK
Protocol Notes: Luciferase reporter gene assay of inhibitory effect against RORγ transcriptional activity (GAL4-hRORγ plasmid in CHO cells)
Assay type: cell-based
Conditions Used: read-out: LUC EC50 hRORg
Measure Name: EC50

Worked cases, answers included:
Compound	Target System	EC50
COc1cc(C)ccc1CNC(=O)C[C@H](CCO)c1nnc([C@H]2C[C@@H](CC(C)C)C2)n1C1CC1 [Example F-535]	human RORγ (Homo sapiens)	< 3 µM
CC(C)(CO)C[C@H]1C[C@@H](c2onc([C@@H](CCC(=O)O)CC(=O)Nc3ccc(CO)cc3Cl)c2C2CC2)C1 [Example F-726]	human RORγ (Homo sapiens)	> 3 µM

Prompt: Specify measured EC50 for Cc1cc(C)c(NC(=O)C[C@H](CCO)c2nnc([C@H]3C[C@@H](CC(C)C)C3)n2C2CC2)c(F)c1 [Example F-548] .
Response: < 3 µM

Prompt: Specify measured EC50 for Cc1ccc(NC(=O)C[C@H](CC(C)C)c2nnc(-c3cc(CC(C)C)no3)n2C2CC2)c(C)c1 [Example F-591] .
Response: < 3 µM

Prompt: Specify measured EC50 for CC(C)(C)Cc1cc(-c2onc([C@@H](CCC(=O)O)CC(=O)Nc3ccc(Cl)cc3Cl)c2C2CC2)no1 [Example E-78] .
Response: < 3 µM

====

EC50 values for the compounds below.
Target System: mouse RORγ (Mus musculus)
Construct: mouse, NM_011281.2 and from Ile251 to Lys516; expressed in transfected cells; host or cells: CHO cells (transient co-transfection with pG5-Luc reporter)
Sequence (P51450 251-516): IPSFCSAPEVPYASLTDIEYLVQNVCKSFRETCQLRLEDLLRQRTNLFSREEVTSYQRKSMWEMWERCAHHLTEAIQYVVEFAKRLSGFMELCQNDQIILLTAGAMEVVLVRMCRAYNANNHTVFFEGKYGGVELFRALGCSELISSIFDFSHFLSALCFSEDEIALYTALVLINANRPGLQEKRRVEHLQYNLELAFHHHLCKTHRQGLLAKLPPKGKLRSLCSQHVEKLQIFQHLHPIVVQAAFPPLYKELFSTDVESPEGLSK
Protocol Notes: Luciferase reporter gene assay of inhibitory effect against RORγ transcriptional activity (GAL4-mRORγ plasmid in CHO cells)
Assay type: cell-based
Conditions Used: read-out: LUC EC50 (μM) mRORg

Worked cases, answers included:
Compound	EC50
CC(=O)N1C[C@H](C(=O)Nc2cccc(Cl)c2C)[C@@H](c2nnc(CCC3CCCCC3)n2C2CC2)C1 (racemic)	< 3 µM
CCn1c(CCC(=O)Nc2cc(C)cc(C)c2)nnc1CCC(C)C	> 3 µM

Prompt: Specify measured EC50 for Cc1c(Cl)cccc1NC(=O)CCc1nnc(CC(=O)OC(C)(C)C)n1C1CC1 .
Response: < 3 µM

====

Target System: human RORγ (Homo sapiens, UniProt P51449)
Construct: human, NM_005060.3 and from Ser253 to Lys518; expressed in transfected cells; host or cells: CHO cells (transient co-transfection with pG5-Luc reporter)
Protocol Notes: Luciferase reporter gene assay of inhibitory effect against RORγ transcriptional activity (GAL4-hRORγ plasmid in CHO cells)
Format: cell-based
Conditions Used: read-out: LUC EC50 (μM) hRORg
Measure Name: EC50

Worked cases, answers included:
Compound	Result
Cc1ccc(NC(=O)C[C@@H](c2nnc(CCCC(C)(C)C)n2C2CC2)N(C)C(=O)OCc2ccccc2)c(C)c1	> 3 µM
Cc1ccc(NC(=O)CCc2nnc(CCC3CCC(F)(F)CC3)n2C2CC2)c(C)c1	< 3 µM
Cc1c(Cl)cccc1NC(=O)CCc1nnc(CCOC(C)(C)C(F)(F)F)n1C1CC1	< 3 µM
CNC(=O)[C@H]1CC[C@H](CCc2nnc(CCC(=O)Nc3cccc(Cl)c3C)n2C2CC2)CC1	> 3 µM
Cc1c(Cl)cccc1NC(=O)CCc1nnc(C2CN(C(=O)OC(C)(C)C)C2)n1C1CC1	> 3 µM
CCn1c(CCC(=O)Nc2cccc(Cl)c2C)nnc1CCC(C)C	> 3 µM
Cc1ccc(NC(=O)CCc2nnc(-c3cc(CC(C)C)on3)n2C2CC2)c(C)c1	< 3 µM
CCn1c(CCC2CCCCC2)nnc1[C@H]1CCCC[C@@H]1C(=O)Nc1cccc2ccccc12 (racemic)	< 3 µM
CC(=O)N1C[C@H](C(=O)Nc2cccc(Cl)c2C)[C@@H](c2nnc(CCC3CCCCC3)n2C2CC2)C1 (racemic)	< 3 µM
Cc1ccc(NC(=O)CCc2nnc(CCC3CCCCC3)n2C2CC2(F)F)c(C)c1 (racemic)	< 3 µM

Prompt: Specify measured EC50 for Cc1ccc(NC(=O)CCc2nnc(CCCC(C)(C)C)n2C2CC2)c(C)c1 .
Response: < 3 µM

Prompt: Specify measured EC50 for O=C(O)CC[C@@H](CC(=O)Nc1ccc(Cl)cc1Cl)c1noc(-c2cc(C3CCCC3)on2)c1C1CC1 .
Response: < 3 µM

Prompt: Specify measured EC50 for CCOC(=O)CCc1nnc(CCC(=O)Nc2cccc(Cl)c2C)n1C1CC1 .
Response: > 3 µM

Prompt: Specify measured EC50 for CC(=O)N1C[C@H](C(=O)Nc2ccc(C)cc2C)[C@@H](c2nnc(-c3cnn(C(C)C)c3)n2C2CC2)C1 (racemic) .
Response: > 3 µM

Prompt: Specify measured EC50 for COc1cc(C)ccc1CNC(=O)[C@H]1CCN(C(C)=O)[C@@H]1c1nnc(CCCC(C)(C)C)n1C1CC1 .
Response: < 3 µM

Prompt: Specify measured EC50 for CCc1c(CCC(=O)Nc2cccc3ccccc23)noc1C1Cc2ccccc2C1 .
Response: < 3 µM

Prompt: Specify measured EC50 for C=CCC(CC(=O)Nc1ccc(C)cc1C)c1nnc(CCCC(C)C)n1C1CC1 (racemic) .
Response: < 3 µM

Prompt: Specify measured EC50 for Cc1c(Cl)cccc1NC(=O)CCc1nnc(CCC2CCCCC2)n1C1CC1 .
Response: < 3 µM

Prompt: Specify measured EC50 for CC(=O)N1CC[C@H](C(=O)Nc2ccc(C)cc2C)[C@H]1c1nnc(CCCC(C)(C)C)n1C1CC1 .
Response: < 3 µM

Prompt: Specify measured EC50 for Cc1cc(C)cc(NC(=O)CCc2nnc(CCC(C)C)n2C2CC2)c1 .
Response: > 3 µM

Prompt: Specify measured EC50 for CC(=O)N1CC([C@H](CC(=O)Nc2ccc(C)cc2C)c2nnc([C@H]3C[C@@H](CC(C)C)C3)n2C2CC2)C1 .
Response: > 3 µM
